ASSAY NOTES: NCI Yeast Anticancer Drug Screen. Data for the rad52 strain (AID 147);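 also: 0% = growth of vehicle-treated control cultures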
CONDITION DESCRIPTION: S. cerevisiae rad52 mutant growth inhibition; at 1.2 µM; stronger effect = higher value
The panel holds about 79,000 compounds, 15% with a hit somewhere; the sample as a whole holds those more often.
Collected growth inhibition values appear next to each entry.

MOLECULE: COC(=O)C(=O)CC(=O)c1cccc(OC)c1
UNIT SPEC: %
growth inhibition: -9
--
MOLECULE: NC(CCCCCCCCCCCCC(N)C(=O)c1ccccc1)C(=O)c1ccccc1 (stereo not drawn)
UNIT SPEC: %
growth inhibition: -3
--
MOLECULE: Nc1cc(Cl)ccc1Nc1ccccc1
UNIT SPEC: %
growth inhibition: -25
--
MOLECULE: CC/C(=C(\c1ccccc1)c1ccc(OCC[N+](C)(C)C)cc1)c1ccccc1
UNIT SPEC: %
growth inhibition: 0
--
MOLECULE: O=C(NCCCCN(CCCNC(=O)C(F)(F)F)Cc1ccccc1)C(F)(F)F
UNIT SPEC: %
growth inhibition: 30
--
MOLECULE: CC(=O)Oc1ccc2c(c1)Cc1cc(N3C(=O)C=CC3=O)ccc1-2
UNIT SPEC: %
growth inhibition: 10
--
MOLECULE: NCCOc1ccc(/C(=C(/Cl)c2ccccc2)c2ccccc2)cc1
UNIT SPEC: %
growth inhibition: -10
--
MOLECULE: N#CCCC1C(C#N)C2(Cl)CC1(Cl)C(Cl)=C2Cl (stereo not drawn)
UNIT SPEC: %
growth inhibition: -15
--
MOLECULE: CCC(OC(C)=O)C1CC(C(C)C)CCC1C (stereo not drawn)
UNIT SPEC: %
growth inhibition: 1
--
MOLECULE: CC1(C2CC2)C(C#N)(C#N)C1(C#N)C#N
UNIT SPEC: %
growth inhibition: 2
--
MOLECULE: Cc1ccc(NC(Nc2ccc(C)cc2C)=C(C(Cl)=C(Cl)Cl)[N+](=O)[O-])c(C)c1
UNIT SPEC: %
growth inhibition: 4
--
MOLECULE: CN(N=O)C(=O)Nc1ccc(C(=O)O)cc1
UNIT SPEC: %
growth inhibition: 1
--
MOLECULE: CC(C)CCC[C@@H](C)[C@H]1CC[C@H]2[C@@H]3CC[C@H]4C[C@H](N)CC[C@]4(C)[C@H]3CC[C@]12C
UNIT SPEC: %
growth inhibition: -2
--
MOLECULE: O=C(CN(c1ccccc1)c1ccccc1)n1nnc2ccccc21
UNIT SPEC: %
growth inhibition: 18
--
MOLECULE: O=C1C(=O)N(c2ccccc2)[C@@]2(c3ccccc3)C(=Nc3ccccc3)OC(c3ccccc3)=C12
UNIT SPEC: %
growth inhibition: 0
--
MOLECULE: Cc1ccc(C)c(C(=N)c2ccccc2Cc2ccccc2)c1
UNIT SPEC: %
growth inhibition: -5
--
MOLECULE: O=C(O)c1cc2c(cc1S(=O)(=O)O)C1C(C3C2C2(Cl)C(Cl)=C(Cl)C3(Cl)C2(Cl)Cl)C2(Cl)C(Cl)=C(Cl)C1(Cl)C2(Cl)Cl (stereo not drawn)
UNIT SPEC: %
growth inhibition: 0
--
MOLECULE: CCCCCCCSCC1C(=O)C23C(O)C1CCC2C12COC3(O)C(O)C1C(C)(C)CCC2O (stereo not drawn)
UNIT SPEC: %
growth inhibition: 13
--
MOLECULE: CC(C)OP(=O)(OC(C)C)/C(Cl)=N/Nc1ccc([N+](=O)[O-])cc1
UNIT SPEC: %
growth inhibition: -10
--
MOLECULE: O=[N+]([O-])c1cn[n+]([O-])c2ccccc12
UNIT SPEC: %
growth inhibition: 33
--
MOLECULE: OC1(C#CI)CCCCC1
UNIT SPEC: %
growth inhibition: 1
--
MOLECULE: COc1ccc2nc(CCc3ccccc3)ccc2c1
UNIT SPEC: %
growth inhibition: -18
--
MOLECULE: O=C1c2cccc3cccc(c23)C(=O)N1O
UNIT SPEC: %
growth inhibition: -3
